The origin of these recorded values is patent US20220348647A1.

So I've got a bunch of binders here, and I need their IC50 (nM), β-arrestin assay, Hek293 cells co-expressing CCR4, 20 nM CCL17 values.
# assay-target: T1, cyno CCL17 (Macaca fascicularis (cyno), UniProt Q8HYP9 24-94 (rhesus entry))
# T1 sequence: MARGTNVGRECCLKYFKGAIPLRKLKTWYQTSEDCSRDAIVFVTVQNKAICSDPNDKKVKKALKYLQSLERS
# assay-procedure: cell-based or functional assay
Please format your answer as a value with the unit trailing.

Check out these entries, answers already filled in.
{"columns": ["binder", "observed-result"],
 "data": [
  ["C17B302 (antibody, human IgG2, kappa, V domains shown) VH: EVQLVQSGAEVKKPGESLKISCKGSGYSFTSYWIGWVRQMPGKGLEWMGIIDPSDSDTRYSPSFQGQVTISADKSISTAYLQWSSLKASDTAMYYCARVGPADVWDAFDYWGQGTLVTVSS VL: DIVMTQSPDSLAVSLGERATINCKSSQSVLLSFDNINKLAWYQQKPGQPPKLLIYDASTRESGVPDRFSGSGSGTDFTLTISSLQAEDVAVYYCQQFYSVPSTFGQGTKVEIKR", "13.4 nM"],
  ["C17B311 (antibody, V domains shown) VH: EVQLVQSGAEVKKPGESLKISCKGSGYSFTSYWIGWVRQMPGKGLEWMGIIDPSDSDTRYSPSFQGQVTISADKSISTAYLQWSSLKASDTAMYYCARVGPADVWDAFDYWGQGTLVTVSS VL: DIVMTQSPDSLAVSLGERATINCKSSQSVLLSFDNINKLAWYQQKPGQPPKLLIYDASTRESGVPDRFSGSGSGTDFTLTISSLQAEDVAVYYCQQFYSVPSTFGQGTKVEIK", "10.3 nM"]
]}

Batch request: IC50 (nM), β-arrestin assay, Hek293 cells co-expressing CCR4, 20 nM CCL17 for each of the following binders.
1. C17B234 (antibody, V domains shown, Full IgG1, kappa) VH: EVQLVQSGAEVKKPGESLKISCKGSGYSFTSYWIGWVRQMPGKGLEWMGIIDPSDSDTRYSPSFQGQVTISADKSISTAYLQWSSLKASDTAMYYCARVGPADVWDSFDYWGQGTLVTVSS VL: DIVMTQSPDSLAVSLGERATINCKSSQSVLLSFDNINKLAWYQQKPGQPPKLLIYNASTRESGVPDRFSGSGSGTDFTLTISSLQAEDVAVYYCQQFYSVPSTFGQGTKVEIK
2. C17B236 (antibody, V domains shown, Full IgG1, kappa) VH: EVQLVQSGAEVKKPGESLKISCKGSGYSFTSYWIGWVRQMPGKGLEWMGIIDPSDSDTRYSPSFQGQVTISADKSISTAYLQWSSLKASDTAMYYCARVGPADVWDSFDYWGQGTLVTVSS VL: DIVMTQSPDSLAVSLGERATINCKSSQSVLLSPWNSNQLAWYQQKPGQPPKLLIYGASTRESGVPDRFSGSGSGTDFTLTISSLQAEDVAVYYCQQYYLIPSTFGQGTKVEIK

### Response
5.39 nM
9.5 nM
